Data provenance is patent US20240158446A1.

System: human lung cancer strain NCI-H441;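 also: cell proliferation inhibition after four days measured by CellTiter-Glo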
Assay: cells
Experimental Setup: NCI-H441, 96 h, read-out: NCI-H441 IC50 (nM), NCI-H441 cell proliferation, 4 days, CellTiter-Glo
*1 amine or outer side, *2 acyl side, *3 side chain or, on linkers, in order; H or OH if unused. Where a SMILES comes first, the peptide text is derived from it. Bridges are numbered along the chain shown (N, C = ends). [ ]: non-standard residue; d: D form. The star is where a group is joined. hPhe(3-Cl-4-CF3) = N[C@@H](CCc1ccc(C(F)(F)F)c(Cl)c1)C(=O)O; NPrPhe(4-CF3) = CCCN[C@@H](Cc1ccc(C(F)(F)F)cc1)C(=O)O; NEtAsp = CCN([C@@H](CC(=O)[*:3])C(=O)[*:2])[*:1]; X4 = CCCN([C@@H](CC(C)C)C(=O)[*:2])[*:1]; NMeGly(cPent) = CN[C@H](C(=O)O)C1CCCC1; NMeD = CN[C@@H](CC(=O)O)C(=O)O; NMeL = CN[C@@H](CC(C)C)C(=O)O; Morpholide = C1CN(*)CCO1; Ac4c = NC1(C(=O)O)CCC1; Sar = CNCC(=O)O
Dear colleague, classification is by IC50, with ranges listed here: low: < 6 nM; mid: ≥ 6 nM and < 10 nM; high: ≥ 10 nM

Req: Exercise: read the entry CCO[C@@H]1C[C@H]2C(=O)N(C)C3(CCCC3)C(=O)N(C)[C@@H](C3CCCC3)C(=O)N(C)[C@H](C(=O)N(C)C)CC(=O)N(C)[C@@H](CC)C(=O)N[C@@H]([C@@H](C)CC)C(=O)N(C)CC(=O)N(C)[C@H]3C/C=C\CCN(C3=O)[C@@H](Cc3ccc(C)cc3)C(=O)N(C)CC(=O)N[C@@H](CCc3cc(F)c(C(F)(F)F)c(F)c3)C(=O)N2C1 and state which class it falls under.
Resp: low

Req: Exercise: read the entry CCCN(C)C(=O)[C@@H]1CC(=O)N(C)[C@@H](CC2CCC2)C(=O)N[C@@H]([C@@H](C)CC)C(=O)N(C)CC(=O)N(C)[C@H]2C/C=C\CCN(C2=O)[C@@H](Cc2ccc(C(F)(F)F)cc2)C(=O)N(C)CC(=O)N[C@@H](CCc2cc(F)c(C(F)(F)F)c(F)c2)C(=O)N2C[C@H](OCC)C[C@H]2C(=O)NC2(CCC2)C(=O)N(C)[C@@H](C2CCCC2)C(=O)N1C and state which class it falls under.
Resp: mid

Req: Exercise: read the entry CCCN1C(=O)CN(C)C(=O)CN(C)C(=O)[C@H]([C@@H](C)CC)NC(=O)[C@H](CC(C)C)N(C)C(=O)C[C@@H](C(=O)N2CCOCC2)N(CC)C(=O)[C@H](C2CCCC2)N(C)C(=O)C2(CCC2)NC(=O)[C@@H]2CCCN2C(=O)[C@H](CCc2ccc(C(F)(F)F)c(Cl)c2)NC(=O)CN(C)C(=O)[C@@H]1Cc1ccc(C(F)(F)F)cc1 [PP1953] ([NMeL]I[Sar][Sar][NPrPhe(4-CF3)][Sar][hPhe(3-Cl-4-CF3)]P[Ac4c][NMeGly(cPent)][NEtAsp]-Morpholide; lactam N-11) and state which class it falls under.
Resp: mid

Req: Exercise: read the entry CCCN(C)C(=O)[C@@H]1CC(=O)N(C)[C@@H](COC)C(=O)N[C@@H]([C@@H](C)CC)C(=O)N(C)CC(=O)N(C)[C@H]2C/C=C\CCN(C2=O)[C@@H](Cc2ccc(C(F)(F)F)cc2)C(=O)N(C)CC(=O)N[C@@H](CCc2cc(F)c(C(F)(F)F)c(F)c2)C(=O)N2C[C@H](OCC)C[C@H]2C(=O)NC2(CC(F)(F)C2)C(=O)N(C)[C@@H](C2CCCC2)C(=O)N1C and state which class it falls under.
Resp: low

Req: Exercise: read the entry CC[C@H](C)[C@@H]1NC(=O)[C@H](CC2CCC2)N(C)C(=O)C[C@@H](C(=O)N(C)C)N(C)C(=O)[C@H](C2CCCC2)N(C)C(=O)C2(CC(C)(C)C2)NC(=O)[C@@H]2CC(F)(F)CN2C(=O)[C@H](CCc2cc(F)c(C(F)(F)F)c(F)c2)NC(=O)CN(C)C(=O)[C@H](Cc2ccc(C(F)(F)F)cc2)N2CC/C=C\C[C@@H](C2=O)N(C)C(=O)CN(C)C1=O and state which class it falls under.
Resp: low

Req: Exercise: read the entry CCCN1C(=O)C[C@@H](C(=O)N2CCOCC2)N(C)C(=O)[C@H](C2CCCC2)N(C)C(=O)C2(CCC2)NC(=O)[C@@H]2CCCN2C(=O)[C@H](CCc2ccc(C(F)(F)F)c(Cl)c2)NC(=O)CN(C)C(=O)[C@H](Cc2ccc(C(F)(F)F)cc2)N(CCC)C(=O)CN(C)C(=O)CN(C)C(=O)[C@H](C(C)C)NC(=O)[C@@H]1CC(C)C [PP1815] ([X4]V[Sar][Sar][NPrPhe(4-CF3)][Sar][hPhe(3-Cl-4-CF3)]P[Ac4c][NMeGly(cPent)][NMeD]-Morpholide; lactam N-11) and state which class it falls under.
Resp: high

Req: Exercise: read the entry CC[C@H](C)[C@@H]1NC(=O)[C@H](CC2CC2)N(C)C(=O)C[C@@H](C(=O)N(C)C)N(C)C(=O)[C@H](C2CCCC2)N(C)C(=O)C2(CC(C)(C)C2)NC(=O)[C@@H]2C[C@H](C)CN2C(=O)[C@H](CCc2ccc(C(F)(F)F)c(OC)c2)NC(=O)CN(C)C(=O)[C@H](Cc2ccc(C)cc2)N2CC/C=C\C[C@@H](C2=O)N(C)C(=O)CN(C)C1=O and state which class it falls under.
Resp: mid

Req: Exercise: read the entry CC[C@H](C)[C@@H]1NC(=O)[C@H](C(C)C)N(C)C(=O)C[C@@H](C(=O)N(C)CC)N(C)C(=O)[C@H](C2CCCC2)N(C)C(=O)C2(CC(C)(C)C2)NC(=O)[C@@H]2C[C@H](C)CN2C(=O)[C@H](CCc2ccc(C(F)(F)F)c(OC)c2)NC(=O)CN(C)C(=O)[C@H](Cc2ccc(C(F)(F)F)cc2)N2CC/C=C\C[C@@H](C2=O)N(C)C(=O)CN(C)C1=O and state which class it falls under.
Resp: high

Req: Exercise: read the entry CC[C@H](C)[C@@H]1NC(=O)[C@H](C(C)C)N(C)C(=O)C[C@@H](C(=O)N(C)C)N(C)C(=O)[C@H](C2CCCC2)N(C)C(=O)C2(CC(C)(C)C2)NC(=O)[C@@H]2C[C@H](C)CN2C(=O)[C@H](CCc2ccc(C(F)(F)F)c(OC)c2)NC(=O)CN(C)C(=O)[C@H](Cc2ccc(C(F)(F)F)cc2)N2CC/C=C\C[C@@H](C2=O)N(C)C(=O)CN(C)C1=O and state which class it falls under.
Resp: high

Req: Exercise: read the entry CCCN(C)C(=O)[C@@H]1CC(=O)N(C)[C@@H](CC(F)F)C(=O)N[C@@H]([C@@H](C)CC)C(=O)N(C)CC(=O)N(C)[C@H]2C/C=C\CCN(C2=O)[C@@H](Cc2ccc(C(F)(F)F)cc2)C(=O)N(C)CC(=O)N[C@@H](CCc2cc(F)c(C(F)(F)F)c(F)c2)C(=O)N2C[C@@H](C)C[C@H]2C(=O)NC2(CCC2)C(=O)N(C)[C@@H](C2CCCC2)C(=O)N1C and state which class it falls under.
Resp: high

###

Please go through the items and note down their Kd.
Study Target: UniProt:P01116
Sequence (P01116 whole entry): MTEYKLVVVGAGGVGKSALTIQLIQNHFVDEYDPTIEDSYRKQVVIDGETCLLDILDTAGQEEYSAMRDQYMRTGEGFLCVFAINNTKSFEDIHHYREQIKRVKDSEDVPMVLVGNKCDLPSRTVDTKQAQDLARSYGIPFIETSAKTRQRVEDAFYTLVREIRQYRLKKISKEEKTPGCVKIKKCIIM
Assay: Binding to KRAS by surface plasmon resonance (SPR), Single Cycle Kinetics
Experimental Setup: SPR, Single Cycle Kinetics, GDP-bound KRAS wild-type protein; read-out: KRAS KD
Respond numerically; units are nM and should not be typed.

Req: Returns the measured Kd for the input compound. Input: CCO[C@@H]1C[C@H]2C(=O)NC3(CC(C)(C)C3)C(=O)N(C)[C@@H](C(CC)CC)C(=O)N(C)[C@H](C(=O)N(C)C)CC(=O)N(C)[C@@H](COC)C(=O)N[C@@H]([C@@H](C)CC)C(=O)N(C)CC(=O)N(C)[C@H]3C/C=C\CCN(C3=O)[C@@H](CC3CCC(F)(F)CC3)C(=O)N(C)CC(=O)N[C@@H](CCc3cc(F)c(C(F)(F)F)c(F)c3)C(=O)N2C1
Resp: 0.44

Req: Returns the measured Kd for the input compound. Input: CCO[C@@H]1C[C@H]2C(=O)NC3(CCC3)C(=O)N(C)[C@@H](C3CCCC3)C(=O)N(C)[C@H](C(=O)N(C)CC)CC(=O)N(C)[C@H]3CCC/C=C/c4ccc(cc4)C[C@@H](C(=O)N(C)CC(=O)N[C@@H](CCc4ccc(C(F)(F)F)c(OC)c4)C(=O)N2C1)N1CC/C=C\C[C@@H](C1=O)N(C)C(=O)CN(C)C(=O)[C@H]([C@@H](C)CC)NC3=O
Resp: 0.065

Req: Returns the measured Kd for the input compound. Input: CCO[C@@H]1C[C@H]2C(=O)NC3(CC(C)(C)C3)C(=O)N(C)[C@@H](C3CCCC3)C(=O)N(C)[C@H](C(=O)N(C)CC)CC(=O)N(C)[C@@H](C(C)C)C(=O)N[C@@H]([C@@H](C)CC)C(=O)N(C)CC(=O)N(C)[C@H]3C/C=C\CCN(C3=O)[C@@H](Cc3ccc(C(F)(F)F)cc3)C(=O)N(C)CC(=O)N[C@@H](CCc3cc(F)c(C(F)(F)F)c(F)c3)C(=O)N2C1
Resp: 0.19
